Test system: BVDV NADL virus
Procedure Summary: CPE-based antiviral assay, BVDV NADL in MDBK cells (MTS/PMS)
Settings: Bovine viral diarrhea virus isolates and strains, MDBK, 72 h
pEC50: −log10 of the molar value.
pEC50 below 6 gives rule not met; pEC50 at or above it gives rule met.

Below, 6 compounds whose answers are already recorded.
Compound	Qualitative Label
Cc1noc(C)c1NC(=O)c1cc(-c2ccco2)nc2ccccc12	rule not met
Cc1ccc2nc(NC(=O)c3cc4ccccc4[nH]3)sc2c1 [CSFC-28, Cc1ccc2nc(NC(=O)c3cc4ccccc4[NH]3)sc2c1]	rule not met
COc1cccc2sc(NC(=O)c3cc(-c4cccs4)nc4ccccc34)nc12	rule met
O=C(Nc1ccn(-c2ccccc2)n1)c1cc(-c2ccccc2)nc2ccccc12	rule met
Cc1cccc2sc(NC(=O)c3cc(-c4ccccc4)nc4ccccc34)nc12	rule met
O=C(Nc1ccn(-c2cccc(F)c2)n1)c1cc(-c2ccccc2)nc2ccccc12	rule met

Could you verify whether the entry O=C(Nc1ccccn1)c1cc(-c2ccccc2)nc2ccccc12 shows pEC50 of no less than 6?
rule not met

For O=C(Nc1ccn(-c2ccccc2)n1)c1cc(-c2cccs2)nc2c(F)cccc12 then?
rule met

// same read-out, input: COc1ccc2nc(NC(=O)c3cc(-c4ccc(F)cc4)nc4ccccc34)sc2c1
rule met

* * *

Tested on: BVDV NADL virus
Procedure Summary: CPE-based antiviral assay, BVDV NADL in MDBK cells (MTS/PMS)
Settings: sheet CSFCII#; potency relative to TO502-2403 (EC50 0.2 µM)
Measured Parameter: fold increase
Give the figure by itself; no unit, no explanation.

Previously resolved entries follow.
Structure As Smiles	Target Of Assay	fold increase
COc1cccc2sc(NC(=O)c3cc(-c4cccs4)nc4ccccc34)nc12	BVDV NADL virus	0.33
Cc1sc(NC(=O)c2cc(-c3ccccc3)nc3ccccc23)nc1-c1ccccc1	BVDV NADL virus	0.67
Cc1cccc2sc(NC(=O)c3cc(-c4cccn4C)nc4ccccc34)nc12	BVDV NADL virus	1.00
COc1ccc(-n2ccc(NC(=O)c3cc(-c4ccc(F)cc4)nc4ccccc34)n2)cc1	BVDV NADL virus	0.20
O=C(Nc1ccn(-c2ccccc2)n1)c1cc(-c2ccc(F)cc2)nc2ccc(F)cc12	BVDV NADL virus	0.67
Cc1cc(NC(=O)c2cc(-c3ccco3)nc3ccccc23)on1	BVDV NADL virus	0.0114

For COc1ccc(-c2cc(C(=O)Nc3ccn(-c4ccccc4)n3)c3ccccc3n2)cc1F , what is its reported fold increase?
0.33

Check O=C(Nc1ccn(-c2ccccc2F)n1)c1cc(-c2ccccc2)nc2ccccc12 too.
0.13

// query: Cc1ccc(-c2cc(C(=O)Nc3ccn(-c4ccccc4)n3)c3ccccc3n2)cc1
2.00

Then COc1ccc2nc(NC(=O)c3cc(-c4cc(C)oc4C)nc4ccccc34)sc2c1 ?
0.67

Would you mind doing O=C(Nc1nc2cc(F)ccc2s1)c1cc(-c2ccco2)nc2ccccc12 as well?
0.002

Param item: Cc1ccc(-n2ccc(NC(=O)c3cc(-c4cccnc4)nc4ccccc34)n2)cc1
10.00

Cool, now COc1ccc2nc(NC(=O)c3cc(-c4ccco4)nc4ccc(C)cc34)sc2c1
0.0174

Now the compound Cc1ccc(-c2cc(C(=O)Nc3ccn(-c4ccccc4)n3)c3ccccc3n2)o1
0.0132

Also Cc1cccc2sc(NC(=O)c3cc(-c4cccs4)nc4c(F)cccc34)nc12 ?
0.67

Lookup Cc1ccc(-n2ccc(NC(=O)c3cc(-c4ccccc4)nc4ccccc34)n2)cc1
0.33

Then O=C(Nc1ccn(-c2ccccc2)n1)c1cc(-c2ccc(F)cc2)nc2ccccc12 ?
2.00

Same for O=C(Nc1nc2cc(Cl)ccc2s1)c1cc(-c2ccco2)nc2ccccc12
0.002

* * *

Tested on: BVDV NADL virus
Procedure Summary: CPE-based antiviral assay, BVDV NADL in MDBK cells (MTS/PMS)
Settings: sheet CSFCII#; potency relative to TO502-2403 (EC50 0.2 µM)
Exam item: assign true (1) to entries whose fold increase is below 1 and false (0) to entries at or above 1. Note that a value of exactly 1 receives false (0).

Here are 5 molecules together with their reported answers.
Molecule	Qualitative Label
O=C(Nc1ccn(-c2ccccc2)n1)c1cc(-c2ccccc2F)nc2c(F)cccc12 [CSFC-102]	true (1)
O=C(Nc1cc(-c2ccc(Br)cc2)on1)c1cc(-c2ccccc2)nc2ccccc12 [CSFC-43]	true (1)
Cc1cc(C)c2nc(-c3ccco3)cc(C(=O)Nc3nc4c(C)cccc4s3)c2c1 [CSFC-75]	true (1)
CC(C)(C)c1cc(NC(=O)c2cc(-c3ccccc3)nc3ccccc23)no1 [CSFC-32]	true (1)
O=C(Nc1ccn(-c2cccc(F)c2)n1)c1cc(-c2ccccc2)nc2ccccc12 [CSFC-126]	true (1)

For O=C(Nc1ccn(-c2ccccc2)n1)c1cc(-c2cccc(F)c2)nc2ccccc12 [CSFC-69] , is the recorded fold increase below the cut-off of 1?
false (0)

Next molecule: Cc1cccc(-n2ccc(NC(=O)c3cc(-c4ccccc4)nc4ccccc34)n2)c1 [CSFC-133]
false (0)

Now the molecule Cc1cccc2sc(NC(=O)c3cc(-c4ccsc4)nc4ccccc34)nc12 [CSFC-78]
false (0)

* * *

fold increase values for the compounds below.
Tested on: BVDV NADL virus
Procedure Summary: CPE-based antiviral assay, BVDV NADL in MDBK cells (MTS/PMS)
Settings: sheet CSFCII#; potency relative to TO502-2403 (EC50 0.2 µM)
Simply state the number, no unit and no words.

Structure As Smiles	fold increase
Cc1cccc2sc(NC(=O)c3cc(-c4ccc(F)cc4)nc4ccccc34)nc12	1.00

Recorded fold increase of O=C(Nc1ccn(-c2ccc(Cl)cc2)n1)c1cc(-c2ccco2)nc2c(F)cccc12 , please.
1.00

Now try Cc1cccc2sc(NC(=O)c3cc(-c4cccs4)nc4c(Cl)cccc34)nc12 .
1.00
